Target: Tyrosine-protein phosphatase non-receptor type 11 (Homo sapiens) (UniProt Q06124)
Assay: Inhibition of recombinant human SHP2 expressed in Escherichia coli using 2P-IRS1 peptide as substrate at 1 uM after 1 hr by microplate reader analysis relative to control
Measurement type: inhibition (%)

Examples with answers:
Compound: COC(=O)c1cc(O)c(=O)c2c(O)c(O)c(F)cc2c1
Measurement type: inhibition
Measured result: 12
//
Compound: O=C(O)c1cc(O)c(=O)c2c(O)c(O)ccc2c1 [7-DESHYDROXYPYROGALLIN-4-CARBOXYLIC ACID]
Measurement type: inhibition
Measured result: 93
//
Compound: N#Cc1cc(O)c(=O)c2c(O)c(O)ccc2c1
Measurement type: inhibition
Measured result: 40
//
Compound: O=C(O)c1cc(O)c(=O)c2c(O)c(O)c(F)cc2c1
Measurement type: inhibition
Measured result: 90

1: COC(=O)c1cc(OC)c(=O)c2c(OC)c(OC)ccc2c1
2: CC(C)OC(=O)c1cc(O)c(=O)c2c(O)c(O)ccc2c1
Asked: Of the pair 1 and 2 , name the member with the lesser recorded inhibition. Selection: enter the item's label.
Given back: 1
(1: 0%, 2: 2%)

P: NC(=O)c1cc(O)c(=O)c2c(O)c(O)c(F)cc2c1
Q: COc1ccc2cc(C(=O)O)cc(OC)c(=O)c2c1OC
R: COC(=O)c1cc(O)c(=O)c2c(O)c(O)ccc2c1
Asked: Given 3 compounds, produce a descending ranking by inhibition. // format: requested-order list of labels
Given back: R, P, Q
(R: 87%, P: 52%, Q: 0%)

A: CC(C)OC(=O)c1cc(O)c(=O)c2c(O)c(O)c(F)cc2c1
B: CCOC(=O)c1cc(O)c(=O)c2c(O)c(O)c(F)cc2c1
Asked: Of the pair A and B , name the member with the lesser recorded inhibition. Selection: enter the item's label.
Given back: A
(A: 0.47%, B: 19%)

====

System: MDA-MB-468
Assay: Antiproliferative activity against human MDA-MB-468 cells assessed as reduction in cell viability after 2 to 4 days by CCK-8 assay
Format: functional, cell-based
Measurement type: IC50 (µM)

Compound: O=C(O)c1cc(O)c(=O)c2c(O)c(O)ccc2c1 [7-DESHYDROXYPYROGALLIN-4-CARBOXYLIC ACID]
Scale unit: µM
IC50: 5.3

I: CC1(N)CCN(c2cnc(-c3cccc(Cl)c3Cl)c(N)n2)CC1
II: O=C(O)c1cc(O)c(=O)c2c(O)c(O)c(F)cc2c1
III: COC(=O)c1cc(O)c(=O)c2c(O)c(O)ccc2c1
Asked: Given 3 compounds, produce a descending ranking by IC50. // format: requested-order list of labels
Given back: II, I, III
(II: 71 µM, I: 29.9 µM, III: 4.6 µM)
